- tested-system: T1, full-length recombinant human PAD4 (human, UniProt Q9UM07 1-663)
- T1 construct: Full-length recombinant; also called peptidylarginine deiminase 4
- T1 sequence (Q9UM07 whole entry): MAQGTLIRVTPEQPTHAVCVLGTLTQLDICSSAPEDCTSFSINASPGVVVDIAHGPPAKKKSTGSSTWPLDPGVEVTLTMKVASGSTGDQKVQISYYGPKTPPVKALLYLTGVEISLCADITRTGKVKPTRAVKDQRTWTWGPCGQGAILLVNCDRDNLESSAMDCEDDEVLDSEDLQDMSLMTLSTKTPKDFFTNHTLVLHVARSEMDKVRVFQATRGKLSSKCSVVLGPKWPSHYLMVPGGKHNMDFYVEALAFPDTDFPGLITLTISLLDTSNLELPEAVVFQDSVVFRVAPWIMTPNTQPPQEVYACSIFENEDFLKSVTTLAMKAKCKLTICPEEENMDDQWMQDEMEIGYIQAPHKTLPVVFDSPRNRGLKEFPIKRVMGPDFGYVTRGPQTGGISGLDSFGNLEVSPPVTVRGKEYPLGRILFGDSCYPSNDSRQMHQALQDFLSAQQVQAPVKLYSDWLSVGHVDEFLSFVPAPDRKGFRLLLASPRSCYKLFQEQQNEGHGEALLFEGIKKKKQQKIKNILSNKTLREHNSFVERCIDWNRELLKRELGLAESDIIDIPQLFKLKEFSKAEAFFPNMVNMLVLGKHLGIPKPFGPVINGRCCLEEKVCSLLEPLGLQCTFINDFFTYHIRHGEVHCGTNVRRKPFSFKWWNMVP
- assay-notes: ELISA, immobilized human PAD4
quantity-kind: O.D. 490/630 at 0.25 µg/mL

binder	result-value
humanized anti-PAD4 antibody derived from H7, VH H4.32 / VL L4.17 (antibody, IgG1, V domains shown, IgG1 kappa; also called H7 H4.32/L4.17) VH: EVQLLESGGGLVQPGGSLRLSCAASGFTFSTYAMGWVRQAPGKGLEFVAAIRNDGSWTGYGAAVKGRVTISRDNSKNTVYLQMNSLRAEDTAVYYCAKYTGSSGGSIGAWGQGTLVTVSS VL: SYELTQPPSVSVSPGQTARITCSGGSGRYYYGWYQQKPGQAPVTVIYSSTHRPSGIPERFSGSTSGNTTTLTISGVQAEDEADYYCGTADSSSYVFGGGTKLTVLG	1.86
humanized anti-PAD4 antibody derived from G8, VH H4.32 / VL L4.29 (antibody, IgG1, V domains shown, IgG1 kappa; also called G8 H4.32/L4.29) VH: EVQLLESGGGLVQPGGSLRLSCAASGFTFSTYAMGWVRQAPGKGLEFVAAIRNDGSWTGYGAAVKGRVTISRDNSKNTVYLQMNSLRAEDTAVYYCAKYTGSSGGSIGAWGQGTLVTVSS VL: SYELTQPPSVSVSPGQTARITCSGGNRNYYYGWYQQKPGQAPVTVIYANDKRPSGIPERFSGSNSGSTTTLTISGVQAEDEADYYCGTADTGKYVFGGGTKLTVLG	1.85
